system: Caco-2; assay: Ratio of apparent permeability of FSA to compound in human Caco2 cells from apical to basolateral side at 2 mM after 1 hr by HPLC analysis; conditions: caco-2, 1 h, 2000 µM
Property: Ratio; scope: individual compounds
Give the figure by itself; no unit, no explanation.

mol=CC(C)Cc1ccc([C@@H](C)C(=O)OC[C@H](NC(=S)[C@H](C)N)C(=O)O)cc1 reading=1.29
mol=C[C@H](N)C(=S)N[C@@H](COC(=O)CC1(CN)CCCCC1)C(=O)O reading=0.46
mol=CC(C)c1cccc(C(C)C)c1OC(=O)C[C@H](NC(=S)[C@H](C)N)C(=O)O reading=0.41

Could you now consider this next compound?
Provide Ratio, system Caco-2, entry COc1ccc2cc(CC/C(C)=N/OCCOC(=O)C[C@H](NC(=S)[C@H](C)N)C(=O)O)ccc2c1
1.94
